Target: WDR5 (Homo sapiens (Human), UniProt P61964)
Test: TR-FRET binding assay (displacement of 10mer-Thr-FAM probe from WDR5)
Settings: read-out: Ki for Inhibition of WDR5 by TR-FRET assay; TR-FRET, 10mer-Thr-FAM probe, WDR5-His tag 2 nM, pH 7.0
pKi: −log10 of the molar value.
measurementLabel: pKi

1) COc1cc(OC)cc(C(NC(=O)c2cc(Cn3ccn(C)c3=N)cc(-c3ncccc3C(F)(F)F)c2)C2CC2)c1 (stereo not shown) [Example 61]
8.55
2) Cc1cc(CNC(=O)c2cc(Cn3ccn(C)c3=N)cc(-c3ccnn3C)c2)ccc1Cl [Example 17]
9.03
3) COc1cc(CNC(=O)c2cc(Cn3ccn(C)c3=N)cc(-c3cnc(F)cc3C)c2)cc(OC)c1 [Example 78]
8.23

====

Biological target: WDR5 (Homo sapiens (Human))
Test: TR-FRET binding assay (displacement of 10mer-Thr-FAM probe from WDR5)
Conditions: read-out: Ki for Inhibition of WDR5 by TR-FRET assay; TR-FRET, 10mer-Thr-FAM probe, WDR5-His tag 2 nM, pH 7.0
measurementLabel: Ki

1. Cc1cc(F)ccc1-c1cc(Cn2ccoc2=N)cc(C(=O)NCc2ccc(Cl)c(Cl)c2)n1 [Example 277]
> 33 nM
2. CCn1cc(-c2cc(Cn3ccsc3=N)cc(C(=O)N[C@H](c3ccc(F)c(OC)c3)C3CC3)c2)c(C(F)(F)F)n1 [Example 328]
< 0.1 nM
3. Cc1ccnc(C(NC(=O)c2cc(Cn3ccn(C)c3=N)cc(-c3ccc(F)nc3C)c2)C2CC2)c1 (centres unmarked) [Example 3]
< 0.1 nM
4. Cc1cc([C@@H](NC(=O)c2cc(CN3CCSC3=N)cc(-c3cn(CC(C)C)nc3C(F)(F)F)c2)C2CC2)ccc1F [Example 313]
1.2 nM
5. Cc1ccnc(C(NC(=O)c2cc(Cn3ccn(C)c3=N)cc(-c3cnccc3C)c2)C2CC2)c1 (centres unmarked) [Example 15]
2.7 nM
6. Cc1cc([C@@H](NC(=O)c2cc(CN3CCCC3=N)cc(-c3ccc(F)cc3C#N)c2)C2CC2)ccc1F [Example 333]
0.39 nM
7. CC(C)n1cc(-c2cc(CN3CCOC3=N)cc(C(=O)N[C@H](c3ccc(F)c(F)c3)C3CC3)c2)c(C(F)(F)F)n1 [Example 286]
< 0.1 nM
8. Cc1cc([C@@H](NC(=O)c2cc(Cn3ccn(C)c3=N)cc(C3(C(F)(F)F)CC3)c2)C2CC2)ccc1F [Example 217]
< 0.1 nM
9. COc1cc(CN(C)C(=O)c2cc(Cn3ccn(C)c3=N)cc(-c3ccnc(C)c3)c2)cc(OC)c1 [Example 48]
26 nM
10. Cc1cc(F)ccc1-c1cc(Cn2ccn(C)c2=N)cc(C(=O)N[C@H](c2ccc(F)c(C)n2)C2CC2)c1 [Example 173]
0.89 nM
11. Cc1cc([C@@H](NC(=O)c2cc(Cn3ccn(C)c3=N)cc(-c3ccc(F)cc3Cl)c2)C2CC2)ncc1F [Example 174]
< 0.1 nM
12. Cc1cc([C@@H](NC(=O)c2cc(Cn3ccoc3=N)cc(-c3ccc(F)cc3C(F)F)c2)C2CC2)ccc1F [Example 274]
< 0.1 nM
13. CCOc1c(C(=O)N[C@H](c2ccc(F)c(C)c2)C2CC2)cc(Cn2ccn(C)c2=N)cc1-c1cn(C)nc1C(F)(F)F [Example 210]
< 0.1 nM
14. Cc1cc([C@@H](NC(=O)c2cc(CN3CCOC3=N)cc(-c3ccc(F)cc3OC(F)F)c2)C2CC2)ccc1F [Example 273]
< 0.1 nM
